// values below are reported logP
In your answer, state the number alone without any accompanying words.

Some compounds with known logP results, for comparison:
input: Item under review: CCc1ncc([N+](=O)[O-])n1CCNC(=S)OC . Reported logP?
output: 1.46

input: Item under review: C[C@@H]1C[C@H]2[C@@H]3C[C@H](F)C4=CC(=O)C=C[C@]4(C)[C@@]3(F)[C@@H](O)C[C@]2(C)[C@H]1C(=O)COC(=O)C(C)(C)C . Reported logP?
output: 3.86

Turning now to a further record.
input: Item under review: COc1cc2c(cc1OC)C(CCCCC1NCCc3cc(OC)c(OC)cc31)NCC2 (stereo not drawn) . Reported logP?
output: 3.35

* * *

assay: method code SF, from Craig, N. (1990). Drug Compendium. In Hansch, C (Ed.), Comprehensive Medicinal Chemistry. Pergamon Press.
The label depends only on logP: Criterion met if it is at least 2, Criterion not met if it is smaller.

input: In plain terms: is recorded logP at least 2 for CN(C)CCC1CN(C)C(=S)c2cnccc2O1 (stereo unspecified) ?
output: Criterion not met

Others:
input: In plain terms: is recorded logP at least 2 for N#Cc1ccccc1OCC(O)CNCCNC(=O)Cc1ccc(O)cc1 (stereo unspecified) ?
output: Criterion not met

input: In plain terms: is recorded logP at least 2 for CN1CC[C@@]23CCCC[C@@H]2[C@@H]1Cc1ccc(O)cc13 ?
output: Criterion met

* * *

assay: method code SF, from Craig, N. (1990). Drug Compendium. In Hansch, C (Ed.), Comprehensive Medicinal Chemistry. Pergamon Press.; details: pH 4.9
METRIC_NAME: logD
In your answer, state the number alone without any accompanying words.

input: Item under review: CCOC(=O)[C@H](CCc1ccccc1)N[C@@H](C)C(=O)N1CCC[C@H]1C(=O)O . Reported logD?
output: -0.07

Turning now to a further record.
input: Item under review: CCOC(=O)[C@H](CCc1ccccc1)N[C@H]1CCCN2CCC[C@@H](C(=O)O)N2C1=O . Reported logD?
output: 0.55

* * *

// values below are reported logP
test: method code SF, from Craig, N. (1990). Drug Compendium. In Hansch, C (Ed.), Comprehensive Medicinal Chemistry. Pergamon Press.
In your answer, state the number alone without any accompanying words.

Some compounds with known logP results, for comparison:
input: Item under review: Nc1ccc(S(=O)(=O)c2ccc(N)cc2)cc1 . Reported logP?
output: 1.03

input: Item under review: Cc1ncc([N+](=O)[O-])n1CCc1ccncc1 . Reported logP?
output: 0.06

input: Item under review: C=CCC1(C(C)CC)C(=O)NC(=O)NC1=O (stereo unspecified) . Reported logP?
output: 1.47

input: Item under review: COc1cc(NS(=O)(=O)c2ccc(N)cc2)ncn1 . Reported logP?
output: 0.7

input: Item under review: CCC(O)C(CC(C)N(C)C)(c1ccccc1)c1ccccc1 (stereo unspecified) . Reported logP?
output: 4.27

Others:
input: Item under review: COc1cc(S(C)=O)ccc1-c1nc2ncccc2[nH]1 (stereo unspecified) . Reported logP?
output: 1.17

input: Item under review: OCCN1CCN([C@@H]2C[C@@H](c3ccc(F)cc3)c3ccc(C(F)(F)F)cc32)CC1 . Reported logP?
output: 4.39

input: Item under review: C[C@]12CCC(=O)C=C1CC[C@@H]1[C@@H]2CC[C@@]2(C)[C@H]1CC[C@]2(O)C(=O)CO . Reported logP?
output: 2.52

input: Item under review: OC[C@@H](O)[C@H]1O[C@@H]2O[C@H](C(Cl)(Cl)Cl)O[C@@H]2[C@H]1O . Reported logP?
output: 1.02

input: Item under review: Nc1ncn([C@@H]2O[C@H](CO)[C@@H](O)[C@@H]2O)c(=O)n1 . Reported logP?
output: -2.17

input: Item under review: CCC1(CC)C(=O)NCC(C)C1=O (stereo unspecified) . Reported logP?
output: 0.78

Taken from the SangsterLogP compilation.
